Values were extracted from PubChem BioAssay AID1963854.

- Tested on: 186277-243-T-J2-PDC complex spheroid viability
- Assay Overview: Anticancer human tumor 186277-243-T-J2-PDC patient-derived colon adenocarcinoma cell line growth inhibition [POLQ]
- Condition: curve of first compound; second compound 0.1 µM
Consider the following compounds; for each one, report its IC50.
Answers are plain numbers, in nM.

>>> number("COc1cc(C2c3cc4c(cc3C(OC3OC5COC(C)OC5C(O)C3O)C3COC(=O)C23)OCO4)cc(OC)c1O (stereo not drawn) + COC1C(OC(N)=O)C(O)C(Oc2ccc3c(O)c(NC(=O)c4ccc(O)c(CC=C(C)C)c4)c(=O)oc3c2C)OC1(C)C")
739
>>> number("COc1ccc([C@@H](O)c2cc(-c3ncnc4cc(N5CCOCC5)ccc34)c(F)cc2Cl)nn1 + COC1C(OC(N)=O)C(O)C(Oc2ccc3c(O)c(NC(=O)c4ccc(O)c(CC=C(C)C)c4)c(=O)oc3c2C)OC1(C)C")
5610

Switching to the query record.
Tested on 186277-243-T-J2-PDC complex spheroid viability: CC1COCCN1c1cc(-c2ccnn2C)c2ccnc(-c3ccn[nH]3)c2n1 (stereo not drawn) + Cc1cccc(N(C)C(=O)C2C(O)CCN2c2nc(C)cc(C(F)(F)F)c2C#N)c1 . Observed IC50: 46.8

====

- Tested on: 186277-243-T-J2-PDC complex spheroid viability
- Assay Overview: Anticancer human tumor 186277-243-T-J2-PDC cell line growth inhibition [POLQ];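 also: spheroids exposed to compounds for seven days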;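 as to viability, T/C: 100% = DMSO vehicle control viability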
- Condition: second compound 0.1 µM; first compound 0.1 µM; stronger effect = lower value
Value Type: viability, T/C (%)
Give bare numbers, in %.

Hi! Can you tell me viability, T/C for each of these compounds?
1. CC[C@@]1(O)C(=O)OCc2c1cc1n(c2=O)Cc2cc3c(CN(C)C)c(O)ccc3nc2-1 + Nc1ccc(C#CCN(C(=O)Cc2ncc(C(F)(F)F)cc2C(F)(F)F)c2ccc(F)cc2)nn1
2. CCc1c2c(nc3ccc(O)cc13)-c1cc3c(c(=O)n1C2)COC(=O)[C@]3(O)CC + Nc1ccc(C#CCN(C(=O)Cc2ncc(C(F)(F)F)cc2C(F)(F)F)c2ccc(F)cc2)nn1
3. CC[C@@]1(O)C(=O)OCc2c1cc1n(c2=O)Cc2cc3c(CN(C)C)c(O)ccc3nc2-1 + COC1C(OC(N)=O)C(O)C(Oc2ccc3c(O)c(NC(=O)c4ccc(O)c(CC=C(C)C)c4)c(=O)oc3c2C)OC1(C)C

1: 88.1; 2: 24.7; 3: 42

Hi! Can you tell me viability, T/C for each of these compounds?
1. CC1COCCN1c1cc(C2(S(C)(=N)=O)CC2)nc(-c2ccnc3[nH]ccc23)n1 (stereo not given) + Cc1cccc(N(C)C(=O)C2C(O)CCN2c2nc(C)cc(C(F)(F)F)c2C#N)c1
2. C=CCn1c(=O)c2cnc(Nc3ccc(N4CCN(C)CC4)cc3)nc2n1-c1cccc(C(C)(C)O)n1 + Nc1ccc(C#CCN(C(=O)Cc2ncc(C(F)(F)F)cc2C(F)(F)F)c2ccc(F)cc2)nn1

1: 103; 2: 99.5

====

Consider the following compounds; for each one, report its viability, T/C.
- Test system: 186277-243-T-J2-PDC complex spheroid viability
- Assay Overview: Anticancer human tumor 186277-243-T-J2-PDC cell line growth inhibition [POLQ];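 also: spheroids exposed to compounds for seven days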;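 as to viability, T/C: 100% = DMSO vehicle control viability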
- Condition: second compound 10 µM; first compound 0.001 µM; stronger effect = lower value

// solved cases for viability, T/C follow
>>> result("CC[C@@]1(O)C(=O)OCc2c1cc1n(c2=O)Cc2cc3c(CN(C)C)c(O)ccc3nc2-1 + COC1C(OC(N)=O)C(O)C(Oc2ccc3c(O)c(NC(=O)c4ccc(O)c(CC=C(C)C)c4)c(=O)oc3c2C)OC1(C)C")
"119%"
>>> result("CC[C@@]1(O)C(=O)OCc2c1cc1n(c2=O)Cc2cc3c(CN(C)C)c(O)ccc3nc2-1 + Cc1cccc(N(C)C(=O)C2C(O)CCN2c2nc(C)cc(C(F)(F)F)c2C#N)c1")
"96.2%"
>>> result("Cn1ncnc1[C@H]1c2n[nH]c(=O)c3cc(F)cc(c23)N[C@@H]1c1ccc(F)cc1 + Nc1ccc(C#CCN(C(=O)Cc2ncc(C(F)(F)F)cc2C(F)(F)F)c2ccc(F)cc2)nn1")
"104%"

Hi! Can you tell me viability, T/C for each of these compounds?
1. CC[C@@]1(O)C(=O)OCc2c1cc1n(c2=O)Cc2cc3c(CN(C)C)c(O)ccc3nc2-1 + Nc1ccc(C#CCN(C(=O)Cc2ncc(C(F)(F)F)cc2C(F)(F)F)c2ccc(F)cc2)nn1
2. Cn1ncnc1[C@H]1c2n[nH]c(=O)c3cc(F)cc(c23)N[C@@H]1c1ccc(F)cc1 + Cc1cccc(N(C)C(=O)C2C(O)CCN2c2nc(C)cc(C(F)(F)F)c2C#N)c1
3. Cn1ncnc1[C@H]1c2n[nH]c(=O)c3cc(F)cc(c23)N[C@@H]1c1ccc(F)cc1 + COC1C(OC(N)=O)C(O)C(Oc2ccc3c(O)c(NC(=O)c4ccc(O)c(CC=C(C)C)c4)c(=O)oc3c2C)OC1(C)C

1. 89.7%
2. 92.8%
3. 106%

====

- Tested on: 186277-243-T-J2-PDC complex spheroid viability
- Assay Overview: Anticancer human tumor 186277-243-T-J2-PDC cell line growth inhibition [POLQ];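 also: spheroids exposed to compounds for seven days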;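 as to viability, T/C: 100% = DMSO vehicle control viability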
- Condition: second compound 0.316 µM; first compound 0.0316 µM; stronger effect = lower value
Consider the following molecules; for each one, report its viability, T/C.
One number for each entry, in %.

// solved cases for viability, T/C follow
>>> number("O=C(Nc1ccc(O)c(NS(=O)(=O)c2ccc(F)cc2)c1)c1ccc(-c2ccccc2)cc1 + COC1C(OC(N)=O)C(O)C(Oc2ccc3c(O)c(NC(=O)c4ccc(O)c(CC=C(C)C)c4)c(=O)oc3c2C)OC1(C)C")
96.2
>>> number("CC[C@@]1(O)C(=O)OCc2c1cc1n(c2=O)Cc2cc3c(CN(C)C)c(O)ccc3nc2-1 + Cc1cccc(N(C)C(=O)C2C(O)CCN2c2nc(C)cc(C(F)(F)F)c2C#N)c1")
71.7
>>> number("CC1COCCN1c1cc(C2(S(C)(=N)=O)CC2)nc(-c2ccnc3[nH]ccc23)n1 (stereo not given) + COC1C(OC(N)=O)C(O)C(Oc2ccc3c(O)c(NC(=O)c4ccc(O)c(CC=C(C)C)c4)c(=O)oc3c2C)OC1(C)C")
97.5
>>> number("C#Cc1c(F)ccc2cc(O)cc(-c3ncc4c(N5CC6CCC(C5)N6)nc(OCC56CCCN5CC(F)C6)nc4c3F)c12 (stereo not given) + COC1C(OC(N)=O)C(O)C(Oc2ccc3c(O)c(NC(=O)c4ccc(O)c(CC=C(C)C)c4)c(=O)oc3c2C)OC1(C)C")
87.3

Switching to the query record.
Recorded result, Nc1ccn(C2OC(CO)C(O)C2(F)F)c(=O)n1 (stereo not given) + COC1C(OC(N)=O)C(O)C(Oc2ccc3c(O)c(NC(=O)c4ccc(O)c(CC=C(C)C)c4)c(=O)oc3c2C)OC1(C)C , viability, T/C: 6.61

====

- System: 186277-243-T-J2-PDC complex spheroid viability
- Assay Overview: Anticancer human tumor 186277-243-T-J2-PDC cell line growth inhibition [POLQ];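 also: spheroids exposed to compounds for seven days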;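 as to viability, T/C: 100% = DMSO vehicle control viability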
- Condition: second compound 0.1 µM; first compound 0.316 µM; stronger effect = lower value
Value Type: viability, T/C (%)
Numbers only, in %.

// solved cases for viability, T/C follow
>>> number("COc1cccc(OCCCN)c1-c1cc(Nc2cnc(C#N)cn2)n[nH]1 + Cc1cccc(N(C)C(=O)C2C(O)CCN2c2nc(C)cc(C(F)(F)F)c2C#N)c1")
10.2
>>> number("COc1ccc([C@@H](O)c2cc(-c3ncnc4cc(N5CCOCC5)ccc34)c(F)cc2Cl)nn1 + Cc1cccc(N(C)C(=O)C2C(O)CCN2c2nc(C)cc(C(F)(F)F)c2C#N)c1")
109

Switching to the query record.
Tested on 186277-243-T-J2-PDC complex spheroid viability: C#Cc1c(F)ccc2cc(O)cc(-c3ncc4c(N5CC6CCC(C5)N6)nc(OCC56CCCN5CC(F)C6)nc4c3F)c12 (stereo not drawn) + Cc1cccc(N(C)C(=O)C2C(O)CCN2c2nc(C)cc(C(F)(F)F)c2C#N)c1 . Observed viability, T/C: 21.9

====

Consider the following compounds; for each one, report its pIC50.
- System: 186277-243-T-J2-PDC complex spheroid viability
- Assay Overview: Anticancer human tumor 186277-243-T-J2-PDC cell line growth inhibition [POLQ];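 also: spheroids exposed to compounds for seven days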
- Condition: curve of first compound; second compound 0.1 µM
- Protocol: Multicellular complex tumor spheroid response to Polymerase (POL) inhibitors (novobiocin, ART-558, RP6685) in combination with a variety of drugs and investigational agents in selected tumor cell lines The POL inhibitors (novobiocin, ART-558, and RP6685) were evaluated both individually and in combination with standard of care and investigational anticancer small molecules within a complex spheroid model of solid tumors. . […]
pIC50: −log10 of the molar value.

Hi! Can you tell me pIC50 for each of these compounds?
1. C=CCn1c(=O)c2cnc(Nc3ccc(N4CCN(C)CC4)cc3)nc2n1-c1cccc(C(C)(C)O)n1 + COC1C(OC(N)=O)C(O)C(Oc2ccc3c(O)c(NC(=O)c4ccc(O)c(CC=C(C)C)c4)c(=O)oc3c2C)OC1(C)C
2. COc1cccc(OCCCN)c1-c1cc(Nc2cnc(C#N)cn2)n[nH]1 + COC1C(OC(N)=O)C(O)C(Oc2ccc3c(O)c(NC(=O)c4ccc(O)c(CC=C(C)C)c4)c(=O)oc3c2C)OC1(C)C
3. CCc1cc2c(N3CCc4c(cc(Cn5ccnc5)cc4-c4cn(C)nc4C(F)(F)F)C3=O)ccnc2c(OC)n1 + COC1C(OC(N)=O)C(O)C(Oc2ccc3c(O)c(NC(=O)c4ccc(O)c(CC=C(C)C)c4)c(=O)oc3c2C)OC1(C)C

6.73
> 8.50
< 5.00
